Protocol: BSK_3C_TissueFactor: BioMAP Diversity Plus: 3C Assay for Tissue Factor Biomarker Activity (AID 2282997)
Protocol conditions: BioMAP 3C HUVEC, tissue factor biomarker readout; actives raise or lower the signal
Active and inactive are the calls of the source. Rule for the calls: active = hit-call score of the fitted dose curve at least 0.9, where 1 is the maximum; inactive = score below 0.9.
Possible outcomes: 1 (active), 0 (inactive)

Chemical string | Answer label
Nc1cccc(N)c1 | 0
CC(C)=CCC/C(C)=C\CO | 0
CC(C)CCCCCCOC(=O)c1ccc(C(=O)OCCCCCCC(C)C)c(C(=O)OCCCCCCC(C)C)c1 | 0
Cc1ccc(S(=O)(=O)O)cc1C | 0
C=CCCCCCCCCC(=O)O | 0
Nc1ccc(Nc2ccccc2)cc1 | 1

----------
Protocol: ATG_E_Box_CIS: Attagene CIS-FACTORIAL HepG2 Assay for human Enhancer Box (E-box) (AID 2282936)
Protocol conditions: HepG2 E-box cis-reporter transcription, actives raise or lower the signal
Calls of active or inactive are those of the source. Rule for the calls: active = hit-call score of the fitted dose curve at least 0.9, where 1 is the maximum; inactive = score below 0.9.
Outcome codes: TRUE = active, FALSE = inactive

Compound | Answer label
CN(C)c1ccc(N=NS(=O)(=O)O)cc1 | FALSE
COC(=O)c1ccccc1O | FALSE
CN(C)c1ccc(Cc2ccc(N(C)C)cc2)cc1 | TRUE
CC(=O)OCCC(C)C | FALSE
CCCCCCCCCCCCCCCO | FALSE
CC(C)c1cccc(C(C)C)c1N1C(=O)c2ccc(O)cc2C1=O | FALSE
CC(C)CC(C)(O)C#CC(C)(O)CC(C)C (centres undefined) | FALSE
CCn1nc(Cc2ccccc2)cc1C1CCN(C[C@H]2C[C@H](N(C)[C@@H](C(=O)O)C(C)C)C[C@@H]2c2cccc(F)c2)CC1 | TRUE
CC(C)(O)c1coc(S(=O)(=O)NC(=O)Nc2c3c(cc4c2CCC4)CCC3)c1 | FALSE
CCCC(=O)OCC | FALSE
O=C(NS(=O)(=O)/C=C/c1ccccc1)c1ccc(F)cc1Cl | FALSE
O=C(O)c1cccc(Oc2ccccc2)c1 | FALSE
On1ccccc1=S | TRUE
COCCOc1cc2cc(C(=O)NC3CCN(C(C)C)CC3)n(CC(=O)Nc3ccc(Cl)cn3)c2cn1 | TRUE
Nc1nc2ncc(CNc3ccc(C(=O)N[C@@H](CCC(=O)O)C(=O)O)cc3)nc2c(=O)[nH]1 | FALSE
CCCCCCCCO | FALSE
Cc1ccc(C)c(O)c1 | FALSE
O=c1[nH]c2ccc(S(=O)CCN3CCC(Cc4ccc(F)cc4)CC3)cc2o1 (centres undefined) | FALSE
Nc1ccc(Nc2ccccc2)cc1 | FALSE
Oc1ccc2c(c1)-c1ccccc1C2 | TRUE
O=C(O)c1cc(N=Nc2ccc(S(=O)(=O)Nc3ccccn3)cc2)ccc1O | FALSE
CCOC(=O)CC(CC(=O)OCC)(OC(C)=O)C(=O)OCC | FALSE
COCCOCCOCCOC | FALSE
COc1ccc(-n2nc(C(F)F)cc2-c2ccc(S(C)=O)cc2)cc1 (centres undefined) | FALSE
CCNc1ccccc1 | FALSE
C=CCCCCCCCCC(=O)O | FALSE
CC1(C)C(=O)N(Br)C(=O)N1Br | FALSE
O=C(O)c1cccc(N(Cc2cccnc2)c2ccc(OC(F)F)c(OC(F)F)c2)c1 | FALSE
C1N2CN3CN1CN(C2)C3 | FALSE
CCCCC(CC)COC(=O)c1ccc(C(=O)OCC(CC)CCCC)cc1 (centres undefined) | FALSE
COc1ccc2sc(C(=O)Nc3nnn[nH]3)c(OC(C)C)c2c1 | FALSE
CCc1cc(SCc2sc(-c3ccc(C(F)(F)F)cc3)nc2CN2CCN(c3ccc(OC)cc3)CC2)ccc1OCC(=O)O | TRUE
O=c1n(CC2CO2)c(=O)n(CC2CO2)c(=O)n1CC1CO1 (centres undefined) | FALSE
CCOCCO | FALSE
CC[C@H](C)C(=O)O[C@H]1C[C@@H](C)C=C2C=C[C@H](C)[C@H](CC[C@@H]3C[C@@H](O)CC(=O)O3)[C@H]21 | FALSE
Cn1c(=O)c2c(ncn2C)n(C)c1=O | FALSE
CC[C@H]1OC(=O)[C@H](C)[C@@H](O[C@H]2C[C@@](C)(OC)[C@@H](O)[C@H](C)O2)[C@H](C)[C@@H](O[C@@H]2O[C@H](C)C[C@H](N(C)C)[C@H]2O)[C@](C)(O)C[C@@H](C)C(=O)[C@H](C)[C@@H](O)[C@]1(C)O | FALSE
O=C(O)CCN(C1(C(=O)NO)CCCC1)S(=O)(=O)c1ccc(Oc2ccc(F)cc2)cc1 | FALSE
CCOC(=O)c1ccc(C2CCC(NC[C@H](O)COc3ccc(O)c(NS(C)(=O)=O)c3)CC2)cc1 (some centres undefined) | FALSE
Clc1nc(Cl)c(Cl)c(Cl)c1Cl | FALSE
CCOCCOCCOCCO | FALSE
CC(C)CCCCCCOC(=O)c1ccc(C(=O)OCCCCCCC(C)C)c(C(=O)OCCCCCCC(C)C)c1 | FALSE
O=C(OC[C@H]1O[C@@H](OC(=O)c2cc(O)c(O)c(OC(=O)c3cc(O)c(O)c(O)c3)c2)[C@H](OC(=O)c2cc(O)c(O)c(OC(=O)c3cc(O)c(O)c(O)c3)c2)[C@@H](OC(=O)c2cc(O)c(O)c(OC(=O)c3cc(O)c(O)c(O)c3)c2)[C@@H]1OC(=O)c1cc(O)c(O)c(OC(=O)c2cc(O)c(O)c(O)c2)c1)c1cc(O)c(O)c(OC(=O)c2cc(O)c(O)c(O)c2)c1 | FALSE
CC(C)=CCCC(C)CCO (centres undefined) | FALSE

Data credit: PubChem BioAssay (EPA / NIEHS)
